Form field: metabolised at 0.5 h, 5 µM (one value per entry).
assay: Drug metabolism in human liver microsomes at 5 uM after 30 mins in presence of NADPH; format: ADME; settings: read-out: Drug metabolism

COc1cc(C)c(-c2cnc3[nH]c(-c4c(F)cccc4Cl)cc3c2)cn1 : 15%
Cn1nc(C(F)(F)F)cc1-c1cnc2[nH]c(-c3c(F)cccc3Cl)cc2c1 : < 5%

Consider the compound `COc1cc(OC)c(-c2cnc3[nH]c(-c4c(F)cccc4Cl)cc3c2)cn1` and give its recorded metabolised at 0.5 h, 5 µM.
< 5%

###

Form field: IC50 (one value per entry).
tested on: CHO; experiment: Cytotoxicity against CHO cells; assay type: cell-based; conditions: Cricetulus griseus

Solved entries (count: 2):
Cn1nc(C(F)(F)F)cc1-c1cnc2[nH]c(-c3c(F)cccc3Cl)cc2c1 : > 100 µM
COc1cc(C)c(-c2cnc3[nH]c(-c4c(F)cccc4Cl)cc3c2)cn1 : > 100 µM

Consider the molecule `COc1cc(OC)c(-c2cnc3[nH]c(-c4c(F)cccc4Cl)cc3c2)cn1` and give its recorded IC50.
> 100 µM
